target: T1, human C-MET on stably transfected CHO-K1 cells (human, UniProt P08581 25-1390); test: flow cytometry, C-MET CHO-K1 cells
T1 construct: also called hucMET; human C-MET+ CHO-K1 cells
T1 sequence (P08581 25-1390 limits assumed): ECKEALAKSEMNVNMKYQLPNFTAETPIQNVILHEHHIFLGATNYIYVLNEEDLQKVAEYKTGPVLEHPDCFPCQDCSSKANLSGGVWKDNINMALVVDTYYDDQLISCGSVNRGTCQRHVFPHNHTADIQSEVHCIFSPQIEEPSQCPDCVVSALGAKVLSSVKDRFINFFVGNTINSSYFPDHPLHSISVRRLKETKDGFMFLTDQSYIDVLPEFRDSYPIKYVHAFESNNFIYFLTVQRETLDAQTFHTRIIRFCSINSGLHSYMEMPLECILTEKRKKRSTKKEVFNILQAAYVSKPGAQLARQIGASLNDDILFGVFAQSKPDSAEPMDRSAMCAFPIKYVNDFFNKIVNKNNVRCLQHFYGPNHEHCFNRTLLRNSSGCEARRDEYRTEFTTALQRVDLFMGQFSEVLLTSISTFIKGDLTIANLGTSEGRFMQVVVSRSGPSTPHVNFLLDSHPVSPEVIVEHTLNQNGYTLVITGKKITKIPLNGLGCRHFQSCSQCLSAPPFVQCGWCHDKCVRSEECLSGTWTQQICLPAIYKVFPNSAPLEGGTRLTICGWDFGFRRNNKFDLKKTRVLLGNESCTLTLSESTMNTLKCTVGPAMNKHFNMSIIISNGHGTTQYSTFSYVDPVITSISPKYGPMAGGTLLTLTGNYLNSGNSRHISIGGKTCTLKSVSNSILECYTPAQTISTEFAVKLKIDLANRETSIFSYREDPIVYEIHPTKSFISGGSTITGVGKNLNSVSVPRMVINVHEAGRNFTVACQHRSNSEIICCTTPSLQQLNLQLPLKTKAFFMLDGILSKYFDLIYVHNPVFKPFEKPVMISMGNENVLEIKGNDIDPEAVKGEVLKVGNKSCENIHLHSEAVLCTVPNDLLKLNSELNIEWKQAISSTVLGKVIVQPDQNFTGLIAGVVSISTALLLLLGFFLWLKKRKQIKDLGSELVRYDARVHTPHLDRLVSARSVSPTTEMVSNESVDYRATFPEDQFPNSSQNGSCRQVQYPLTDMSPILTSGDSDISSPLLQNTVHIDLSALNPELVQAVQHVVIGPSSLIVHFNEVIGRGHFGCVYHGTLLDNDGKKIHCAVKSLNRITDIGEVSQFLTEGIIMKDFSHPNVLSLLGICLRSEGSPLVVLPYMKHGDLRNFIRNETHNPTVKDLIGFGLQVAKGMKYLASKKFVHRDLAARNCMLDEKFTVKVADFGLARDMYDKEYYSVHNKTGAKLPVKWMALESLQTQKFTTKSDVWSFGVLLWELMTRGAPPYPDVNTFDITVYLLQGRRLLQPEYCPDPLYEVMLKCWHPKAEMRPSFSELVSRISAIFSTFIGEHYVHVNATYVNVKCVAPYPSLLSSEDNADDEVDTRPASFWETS
measurement-name: maximum MFI, fold over Isotype IgG4 background

q: Given the binder MH5 (antibody, IgG4, V domains shown) VH: QVQLVQSGAEVKKPGASVKVSCKASGYTFTSYTMHWVRQAPGQGLEWMGWINPSGGSTSYAQKFQGRVTMTRDTSTSTVYMELSSLRSEDTAVYYCARQEITTEFDYWGQGTLVTVSS VL: EIVLTQSPGTLSLSPGERATLSCRASQSVSSYAQSYLHWYQQKPGQAPRLLIYRGSTRETGIPDRFSGSGSGTDFTLTISRLEPEDFAVYYCQQSGSSPLTFGGGTKVEIK , write its reported maximum MFI, fold over Isotype IgG4 background.
a: > 10 fold

q: Consider the binder MH11 (antibody, IgG4, V domains shown) VH: QVQLVQSGAEVKKPGASVKVSCKASGYTFTSYAMHWVRQAPGQGLEWMGWINPSGGSTSYAQKFQGRVTMTRDTSTSTVYMELSSLRSEDTAVYYCARQEITTEFDYWGQGTLVTVSS VL: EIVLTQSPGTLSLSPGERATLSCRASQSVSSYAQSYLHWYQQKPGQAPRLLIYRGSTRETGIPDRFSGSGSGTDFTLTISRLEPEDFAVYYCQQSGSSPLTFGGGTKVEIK and give its recorded maximum MFI, fold over Isotype IgG4 background.
a: > 10 fold

q: Note down maximum MFI, fold over Isotype IgG4 background recorded for MH7-1 (antibody, human IgG4, V domains shown) VH: QVQLVQSGAEVKKPGASVKVSCKASGYTFTSYTMHWVRQAPGQGLEWMGIINPSGGSTSYAQKFQGRVTMTRDTSTSTVYMELSSLRSEDTAVYYCARQEITTEFDYWGQGTLVTVSS VL: EIVLTQSPGTLSLSPGERATLSCRASQSVSSYANSYLHWYQQKPGQAPRLLIYRGSTRETGIPDRFSGSGSGTDFTLTISRLEPEDFAVYYCQQSKSEPLTFGGGTKVEIK
a: > 10 fold
